assay: Plasma stability assay, human plasma; format: in vitro ADME; settings: pooled plasma; human plasma, 5 μM, 37 °C; read-out: Plasma stability % remaining at 6 h, hum
Reported remaining at 6 h, 5 μM by item:

{"Compound": "COC(=O)[C@@H]1[C@H]2C[C@H]3c4[nH]c5ccccc5c4CCN3C[C@@H]2CC[C@@H]1O [Compound 1, Yohimbine, reference compound]", "remaining at 6 h, 5 μM / %": 106}
{"Compound": "O=C(O[C@H]1CCNC1)[C@@H]1[C@H]2C[C@H]3c4[nH]c5ccccc5c4CCN3C[C@@H]2CC[C@@H]1O", "remaining at 6 h, 5 μM / %": 100}
{"Compound": "O=C(OC[C@@H]1CCNC1)[C@@H]1[C@H]2C[C@H]3c4[nH]c5ccccc5c4CCN3C[C@@H]2CC[C@@H]1O", "remaining at 6 h, 5 μM / %": 88}
